Molecular target: ULK1 (Homo sapiens)
Sequence (O75385 1-1050): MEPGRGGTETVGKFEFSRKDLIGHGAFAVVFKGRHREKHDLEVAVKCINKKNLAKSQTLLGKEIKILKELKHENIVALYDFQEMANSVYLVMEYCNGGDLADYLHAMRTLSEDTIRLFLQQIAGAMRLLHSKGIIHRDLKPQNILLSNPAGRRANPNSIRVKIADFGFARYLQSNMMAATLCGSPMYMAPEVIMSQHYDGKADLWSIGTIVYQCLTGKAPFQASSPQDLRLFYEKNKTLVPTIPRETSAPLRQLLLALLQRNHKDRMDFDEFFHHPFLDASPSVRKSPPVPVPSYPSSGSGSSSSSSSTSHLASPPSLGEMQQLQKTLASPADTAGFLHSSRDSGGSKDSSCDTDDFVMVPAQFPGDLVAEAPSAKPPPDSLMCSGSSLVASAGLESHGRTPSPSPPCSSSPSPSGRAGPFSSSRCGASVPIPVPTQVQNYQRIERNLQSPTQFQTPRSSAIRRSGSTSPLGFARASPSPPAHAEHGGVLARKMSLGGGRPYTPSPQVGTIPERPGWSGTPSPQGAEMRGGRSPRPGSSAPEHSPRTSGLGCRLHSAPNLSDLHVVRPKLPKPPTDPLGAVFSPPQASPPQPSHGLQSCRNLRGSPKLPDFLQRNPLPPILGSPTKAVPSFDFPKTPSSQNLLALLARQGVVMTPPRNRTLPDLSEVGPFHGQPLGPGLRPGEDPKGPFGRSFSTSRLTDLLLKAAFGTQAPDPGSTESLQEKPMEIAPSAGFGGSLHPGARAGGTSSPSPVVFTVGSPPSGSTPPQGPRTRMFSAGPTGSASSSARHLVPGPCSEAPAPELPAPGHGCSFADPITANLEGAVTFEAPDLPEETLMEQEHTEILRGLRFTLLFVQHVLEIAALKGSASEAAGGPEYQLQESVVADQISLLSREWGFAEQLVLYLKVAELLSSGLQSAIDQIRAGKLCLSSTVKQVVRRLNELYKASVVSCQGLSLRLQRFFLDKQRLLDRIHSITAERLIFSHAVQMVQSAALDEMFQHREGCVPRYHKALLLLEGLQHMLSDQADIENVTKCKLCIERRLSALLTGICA
Experiment: biochemical
Record form. Attribute: pIC50. Fill in for each entry.
Notebook: values listed as pIC50 are -log10 of the concentration (mol/L).

q: Name the reported pIC50 value associated with the molecule CNC(=O)c1ccccc1Nc1nc(Nc2ccc3[nH]ccc3c2)ncc1Cl
a: 7.03

q: // query pIC50 value for entry CNC(=O)c1ccccc1Nc1nc(Nc2cc3c(cc2C)OCO3)ncc1Cl
a: 5.57

q: Requested field: pIC50. Item: CNC(=O)c1ccccc1Nc1nc(Nc2cccc(OC)c2)ncc1Cl
a: 7.30

q: Name the recorded pIC50 for CNC(=O)c1ccccc1Nc1nc(Nc2cc(N3CCOCC3)cc(N3CCOCC3)c2)ncc1C(F)(F)F .
a: 7.82

q: Look up pIC50: CNC(=O)c1ccccc1Nc1nc(Nc2cc(N3CCOCC3)cc(N3CCOCC3)c2)ncc1Cl
a: 7.42

q: For the molecule shown here, CNC(=O)c1ccccc1Nc1nc(Nc2cc(N3CCOCC3)cc(N3CCOCC3)c2)ncc1Br , give the reported pIC50.
a: 8.10

q: // pIC50 lookup, key: CNC(=O)c1ccccc1Nc1nc(Nc2ccc3[nH]ccc3c2)ncc1Br
a: 8.22

q: So what does the record say about pIC50 for CNC(=O)c1ccccc1Nc1nc(Nc2ccc3c(c2)CCC(=O)N3)ncc1C(F)(F)F ?
a: 8.10
